target: Beta‐secretase 1 (Homo sapiens); assay: isolated enzyme kinetic fluorogenic substrate IC50 assay; conditions: 5 min pre‐incubation
Sequence (P56817 46-501): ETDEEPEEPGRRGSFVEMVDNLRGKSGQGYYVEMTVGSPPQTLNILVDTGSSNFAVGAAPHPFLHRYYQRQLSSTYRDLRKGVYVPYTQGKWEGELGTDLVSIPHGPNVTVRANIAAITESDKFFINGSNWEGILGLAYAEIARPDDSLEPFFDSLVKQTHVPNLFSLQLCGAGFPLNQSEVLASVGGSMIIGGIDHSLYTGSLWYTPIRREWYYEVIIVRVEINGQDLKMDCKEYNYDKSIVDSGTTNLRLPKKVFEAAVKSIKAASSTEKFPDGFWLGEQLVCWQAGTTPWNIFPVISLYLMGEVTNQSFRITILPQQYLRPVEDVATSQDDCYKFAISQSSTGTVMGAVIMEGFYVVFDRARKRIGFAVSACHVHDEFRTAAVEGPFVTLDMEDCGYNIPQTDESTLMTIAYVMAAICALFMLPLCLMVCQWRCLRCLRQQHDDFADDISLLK
REPORTED ENDPOINT: IC50

query: Return IC50 measured with Beta‐secretase 1 (Homo sapiens) given this compound: "COCc1nn(Cc2ccc(Cn3ccccc3=O)cc2)cc1C(=O)NCc1nccc(OC)c1F"
result: > 10 µM

###

molecular target: Tissue kallikrein (Homo sapiens, UniProt P06870); assay: isolated enzyme kinetic fluorogenic substrate IC50 assay; settings: 5 min pre‐incubation
Sequence (P06870 25-262): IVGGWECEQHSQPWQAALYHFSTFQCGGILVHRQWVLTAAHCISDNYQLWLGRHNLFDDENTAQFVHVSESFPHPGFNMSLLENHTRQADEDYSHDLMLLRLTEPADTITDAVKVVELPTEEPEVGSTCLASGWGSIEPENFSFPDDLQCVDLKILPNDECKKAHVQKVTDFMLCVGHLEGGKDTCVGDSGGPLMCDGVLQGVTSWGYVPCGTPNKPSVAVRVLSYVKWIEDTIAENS
pIC50: −log10 of the molar value.
REPORTED ENDPOINT: pIC50

query: Record request: pIC50 value, item "COCc1nn(Cc2ccc(Cn3ccccc3=O)cc2)cc1C(=O)NCc1nccc(OC)c1F"
result: < 5.00
